- Test system: C6
- assay procedure: Antiproliferative activity against rat C6 cells after 72 hrs by MTT assay
- Assay type: functional, cell-based
- protocol conditions: C6, 72 h
measurement kind: IC50 (µM)
// units = µM; emit number, no label

Challenge: Recorded IC50 for `COc1cc(/C=C2\CNC/C(=C\c3ccc(O)c(OC)c3)C2=O)ccc1O` , please?
Response given: 3.9

Challenge: Now the same for `CCOc1cc(/C=C2\CN(C(=O)CCC(=O)NCCCNCCCCNCCCN)C/C(=C\c3ccc(O)c(OCC)c3)C2=O)ccc1O`
Response given: 14.2

Challenge: Follow-up item: `COc1cc(/C=C2\CN(C(=O)CCC(=O)NCCCNCCCCNCCCN)C/C(=C\c3ccc(O)c(OC)c3)C2=O)ccc1O`
Response given: 13.9

Challenge: One more compound: `COc1cc(/C=C2\CN(C(=O)CCC(=O)NCCCNCCCN)C/C(=C\c3ccc(O)c(OC)c3)C2=O)ccc1O`
Response given: 19.9

Challenge: Subsequent entry: `CCOc1cc(/C=C2\CN(C(=O)CCC(=O)NCCCNCCCN)C/C(=C\c3ccc(O)c(OCC)c3)C2=O)ccc1O`
Response given: 14.5

Challenge: Next record, please: `COc1cc(/C=C/C(=O)CC(=O)/C=C/c2ccc(O)c(OC)c2)ccc1O`
Response given: 16.1

###

- System: SH-SY5Y
- assay procedure: Antiproliferative activity against human SH-SY5Y cells after 72 hrs by MTT assay
- Format: functional, cell-based
Please respond with reported IC50 for every item in the list.
Number only, in µM; omit the unit.

Challenge: What measured IC50 goes with `COc1cc(/C=C2\CNC/C(=C\c3ccc(O)c(OC)c3)C2=O)ccc1O` ?
Response given: 2.1

Challenge: Query `COc1cc(/C=C2\CN(C(=O)CCC(=O)NCCCNCCCCNCCCN)C/C(=C\c3ccc(O)c(OC)c3)C2=O)ccc1O` next
Response given: 14.2

Challenge: Now give it for COc1cc(/C=C/C(=O)CC(=O)/C=C/c2ccc(O)c(OC)c2)ccc1O [CURCUMIN] too.
Response given: 12.8

Challenge: Moving on to `CCOc1cc(/C=C2\CN(C(=O)CCC(=O)NCCCNCCCN)C/C(=C\c3ccc(O)c(OCC)c3)C2=O)ccc1O`
Response given: 14.6

Challenge: Item: `COc1cc(/C=C2\CN(C(=O)CCC(=O)NCCCNCCCN)C/C(=C\c3ccc(O)c(OC)c3)C2=O)ccc1O`
Response given: 17.8

Challenge: What about this molecule? `CCOc1cc(/C=C2\CN(C(=O)CCC(=O)NCCCNCCCCNCCCN)C/C(=C\c3ccc(O)c(OCC)c3)C2=O)ccc1O`
Response given: 20.8
